target: Cyclin-dependent kinase 4/cyclin D1 (Homo sapiens); assay: Inhibition of Cyclin-dependent kinase 4-cyclin D1; format: protein-complex assay
Sequence (P11802 whole entry): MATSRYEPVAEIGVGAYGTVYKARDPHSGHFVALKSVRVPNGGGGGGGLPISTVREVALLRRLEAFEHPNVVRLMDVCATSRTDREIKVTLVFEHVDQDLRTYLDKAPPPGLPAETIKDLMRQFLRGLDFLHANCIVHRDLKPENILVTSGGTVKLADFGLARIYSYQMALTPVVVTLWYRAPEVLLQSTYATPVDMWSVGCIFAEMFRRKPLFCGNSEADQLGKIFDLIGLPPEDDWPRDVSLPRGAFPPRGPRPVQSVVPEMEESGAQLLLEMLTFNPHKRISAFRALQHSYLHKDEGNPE
Sequence (P24385 whole entry, further chain): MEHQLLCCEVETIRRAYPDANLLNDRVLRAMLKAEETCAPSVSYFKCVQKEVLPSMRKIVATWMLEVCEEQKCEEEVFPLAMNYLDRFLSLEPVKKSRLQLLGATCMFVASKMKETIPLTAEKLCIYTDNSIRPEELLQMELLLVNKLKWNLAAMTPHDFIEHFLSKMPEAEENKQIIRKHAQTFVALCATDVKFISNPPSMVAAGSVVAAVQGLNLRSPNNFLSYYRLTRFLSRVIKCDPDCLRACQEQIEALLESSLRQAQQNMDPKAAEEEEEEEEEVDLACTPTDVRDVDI

{"columns": ["chemical_structure", "IC50"],
 "data": [
  ["CCc1nn(-c2c(Cl)cc(Cl)cc2Cl)c2nc(-c3ccc(OC)c(OC)c3)[nH]c(=O)c12", "> 21000 nM"],
  ["CCc1nn(-c2c(Cl)cc(Cl)cc2Cl)c2nc(Cc3ccc(N(C)C)cc3)[nH]c(=O)c12", "> 2100 nM"],
  ["CCc1nn(-c2c(Cl)cc(Cl)cc2Cl)c2nc(Cc3ccc(O)c(C)c3)[nH]c(=O)c12", "> 2200 nM"]
]}

---

biological target: Cyclin-dependent kinase 4/cyclin D1 (Homo sapiens); test: Inhibition of Cyclin-dependent kinase 4-cyclin D1; format: protein-complex assay
measured_quantity: IC50

{"columns": ["chemical_structure", "experimental_system", "measured_quantity", "reported_value"],
 "data": [
  ["CSc1nn(-c2ccc(C(C)C)cc2)c2nc(C)[nH]c(=O)c12", "Cyclin-dependent kinase 4/cyclin D1 (Homo sapiens)", "IC50", "> 160 µM"],
  ["CCc1nn(-c2c(Cl)cc(Cl)cc2Cl)c2nc(Cc3ccccc3O)[nH]c(=O)c12", "Cyclin-dependent kinase 4/cyclin D1 (Homo sapiens)", "IC50", "> 11 µM"],
  ["CCc1nn(-c2c(Cl)cc(Cl)cc2Cl)c2nc(Cc3ccc(Br)cc3)[nH]c(=O)c12", "Cyclin-dependent kinase 4/cyclin D1 (Homo sapiens)", "IC50", "> 1.2 µM"]
]}

---

biological target: Cyclin-dependent kinase 4/cyclin D1 (Homo sapiens); test: Inhibition of Cyclin-dependent kinase 4-cyclin D1; type: protein-complex assay
measured_quantity: IC50 (µM)

{"columns": ["chemical_structure", "measured_quantity", "qualifier_symbol", "reported_value"],
 "data": [
  ["CCc1nn(-c2c(Cl)cc(Cl)cc2Cl)c2nc(C)[nH]c(=O)c12", "IC50", "=", 1.1],
  ["CCc1nn(-c2c(Cl)cc(Cl)cc2Cl)c2nc(Cc3ccccc3)[nH]c(=O)c12", "IC50", "=", 3],
  ["CSc1nn(-c2ccc(Cl)cc2)c2nc(C)[nH]c(=O)c12", "IC50", ">", 160],
  ["CSc1nn(-c2cccc(Cl)c2)c2nc(C)[nH]c(=O)c12", "IC50", ">", 160],
  ["CCc1nn(-c2c(Cl)cc(Cl)cc2Cl)c2nc(Cc3cccc(O)c3)[nH]c(=O)c12", "IC50", "=", 0.06]
]}

---

molecular target: Cyclin-dependent kinase 4/cyclin D1 (Homo sapiens); assay: Inhibition of Cyclin-dependent kinase 4-cyclin D1; type: protein-complex assay
pIC50: −log10 of the molar value.
Entries and their pIC50 values follow.

{"columns": ["chemical_structure", "pIC50"],
 "data": [
  ["CSc1nn(-c2c(Cl)cc(Cl)cc2Cl)c2nc(C(F)(F)F)[nH]c(=O)c12", "< 3.94"],
  ["Cc1nc2c(c(-c3ccccc3)nn2-c2c(Cl)cc(Cl)cc2Cl)c(=O)[nH]1", "< 3.92"],
  ["CCc1nn(-c2c(Cl)cc(Cl)cc2Cl)c2c1S(=O)(=O)NC(C)=N2", "< 4.29"]
]}

---

molecular target: Cyclin-dependent kinase 1/cyclin B (Homo sapiens, UniProt P06493); assay: Inhibition of Cyclin-dependent kinase 1-cyclin B
Entries and their IC50 values follow.

{"columns": ["chemical_structure", "experimental_system", "IC50"],
 "data": [
  ["CCc1nn(-c2c(Cl)cc(Cl)cc2Cl)c2nc(Cc3ccc(O)c(C)c3)[nH]c(=O)c12", "Cyclin-dependent kinase 1/cyclin B (Homo sapiens, UniProt P06493)", "> 270 nM"],
  ["CCc1nn(-c2c(Cl)cc(Cl)cc2Cl)c2nc(Cc3cccc(N)c3C)[nH]c(=O)c12", "Cyclin-dependent kinase 1/cyclin B (Homo sapiens, UniProt P06493)", "> 270 nM"],
  ["CCc1nn(-c2c(Cl)cc(Cl)cc2Cl)c2nc(Cc3cccc(C)c3)[nH]c(=O)c12", "Cyclin-dependent kinase 1/cyclin B (Homo sapiens, UniProt P06493)", "> 560 nM"],
  ["CCc1nn(-c2c(Cl)cc(Cl)cc2Cl)c2nc(Cc3ccccc3CO)[nH]c(=O)c12", "Cyclin-dependent kinase 1/cyclin B (Homo sapiens, UniProt P06493)", "> 270 nM"],
  ["CCc1nn(-c2c(Cl)cc(Cl)cc2Cl)c2nc(Cc3ccc(OC)c(OC)c3)[nH]c(=O)c12", "Cyclin-dependent kinase 1/cyclin B (Homo sapiens, UniProt P06493)", "> 510 nM"],
  ["CCc1nn(-c2c(Cl)cc(Cl)cc2Cl)c2nc(Cc3ccc(N(C)C)cc3)[nH]c(=O)c12", "Cyclin-dependent kinase 1/cyclin B (Homo sapiens, UniProt P06493)", "> 260 nM"]
]}
